target: YES1 (Homo sapiens (Human))
Sequence (P07947 whole entry): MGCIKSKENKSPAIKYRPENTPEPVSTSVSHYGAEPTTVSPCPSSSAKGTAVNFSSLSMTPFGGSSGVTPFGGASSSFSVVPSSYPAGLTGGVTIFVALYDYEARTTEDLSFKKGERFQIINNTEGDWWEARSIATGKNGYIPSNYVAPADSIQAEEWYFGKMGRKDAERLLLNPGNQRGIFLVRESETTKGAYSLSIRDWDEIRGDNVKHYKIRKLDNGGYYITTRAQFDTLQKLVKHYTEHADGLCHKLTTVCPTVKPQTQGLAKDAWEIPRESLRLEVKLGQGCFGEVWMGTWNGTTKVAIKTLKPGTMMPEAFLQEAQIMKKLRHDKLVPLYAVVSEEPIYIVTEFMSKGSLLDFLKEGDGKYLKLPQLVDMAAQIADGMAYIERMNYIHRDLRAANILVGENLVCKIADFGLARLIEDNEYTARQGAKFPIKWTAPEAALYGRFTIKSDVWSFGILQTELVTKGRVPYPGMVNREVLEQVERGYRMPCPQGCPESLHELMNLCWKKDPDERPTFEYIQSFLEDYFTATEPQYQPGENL
pIC50: −log10 of the molar value.
quantity-name: pIC50

// pIC50 lookup, key: "C=CC(=O)Nc1cccc(F)c1Nc1nc(Nc2ccc(N3CCN(C)CC3)cc2)ncc1C(=O)Nc1c(C)cccc1Cl"
> 9.00

Likewise for "C=CC(=O)Nc1ccc(C)cc1Nc1nc(Nc2ccc(N3CCN(C)CC3)cc2)ncc1Cl" ?
8.00 to 9.00

Likewise for C=CC(=O)Nc1ccccc1Nc1nc(Nc2ccc(N3CCN(C)CC3)cc2)ncc1Cl [SM1-71, reference compound] ?
8.00 to 9.00

Likewise for "C=CC(=O)Nc1ccccc1Nc1nc(Nc2ccc(N3CCN(C)CC3)cc2)ncc1OCc1ccc(C)cc1" ?
8.00 to 9.00

The reported measurements were obtained from patent US12365664B2.
